Molecular target: Human PD-1/PDCD1 Protein (PD-1) (human, UniProt Q15116 25-167, limits assumed)
Sequence (Q15116 25-167 limits assumed): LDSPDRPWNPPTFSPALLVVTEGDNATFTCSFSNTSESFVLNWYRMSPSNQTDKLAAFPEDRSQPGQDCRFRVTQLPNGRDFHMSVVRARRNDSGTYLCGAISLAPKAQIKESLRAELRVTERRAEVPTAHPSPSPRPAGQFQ
Test: SPR, Biacore 8K; PD-1 captured by anti-His antibody, antibody in flow
pKd: recorded values
Quick note: pKd means taking -log10 of the concentration in moles per liter.

Observe how each entry below is paired with its result.
| BINDER | REPORTED_ENDPOINT | VALUE |
| --- | --- | --- |
| HM268-M7 (antibody, human IgG1, V domains shown, also called humanized HM268, VH ver.M / VL ver.7) VH: QVQLVQSGPEVKKPGASVKVVCKASGYTFTSYYIQWVRQVPGQGLEWMGWIYFGDASTKYNEKFKGRVTMTADTSTSTAYMELRSLRSDDTAVYYCASYYGSYFDYWGQGTTVTVSS VL: DIQMTQNTSSLSASVGDRVTITCRASQDISNYLNWYQQKPDGTVKLLIYSTSRLHSGVPSRFSGSGSGTDYTLTISSLEQEDFATYYCQQGSTLPFTFGQGTKLEIK | pKd | 10.92 |
| HM297-G6 (antibody, human IgG1, V domains shown, also called humanized HM297, VH ver.G / VL ver.6) VH: QVQLVQSGPEVKKPGASVKIPCKASGYTFTDYNVDWVRQVPGQGLEWIGDIDPNNGGTIYNQKFKDKATLTVDKSTRTAYMELRSLRSDDTAVYYCARWRGAMDYWGQGTLVTVSS VL: DIQMTQSPSSLSASVGDRVTITCRASQDIDNYLKWYQQKPGKAPKLLIYDTSRLHSGVPSRFSGSGSGTDYTLTISSLQPEDFATYYCQQGYTLPWTFGQGTKLEIK | pKd | 8.72 |
| HM268-M9 (antibody, human IgG1, V domains shown, also called humanized HM268, VH ver.M / VL ver.9) VH: QVQLVQSGPEVKKPGASVKVVCKASGYTFTSYYIQWVRQVPGQGLEWMGWIYFGDASTKYNEKFKGRVTMTADTSTSTAYMELRSLRSDDTAVYYCASYYGSYFDYWGQGTTVTVSS VL: DIQMTQSPSSLSASVGDRVTITCRASQDISNYLNWYQQKPGKAPKLLIYSTSRLHSGVPSRFSGSGSGTDYTLTISSLQPEDFATYYCQQGSTLPFTFGQGTKLEIK | pKd | 10.21 |

Retrieve pKd measured for HM297-E6 (antibody, human IgG1, V domains shown, also called humanized HM297, VH ver.E / VL ver.6) VH: QVQLVQSGPELVKPGASVKIPCKASGYTFTDYNVDWVRQSHGKSLEWIGDIDPNNGGTIYNQKFKDKATLTVDKSTRTAYMELRSLRSDDTAVYYCARWRGAMDYWGQGTLVTVSS VL: DIQMTQSPSSLSASVGDRVTITCRASQDIDNYLKWYQQKPGKAPKLLIYDTSRLHSGVPSRFSGSGSGTDYTLTISSLQPEDFATYYCQQGYTLPWTFGQGTKLEIK and print it.
7.90

Tell me measured pKd for HM297-E4 (antibody, human IgG1, V domains shown, also called humanized HM297, VH ver.E / VL ver.4) VH: QVQLVQSGPELVKPGASVKIPCKASGYTFTDYNVDWVRQSHGKSLEWIGDIDPNNGGTIYNQKFKDKATLTVDKSTRTAYMELRSLRSDDTAVYYCARWRGAMDYWGQGTLVTVSS VL: DIQMTQTTSSLSASVGDRVTITCRASQDIDNYLKWYQQKPDGTVKLLIYDTSRLHSGVPSRFSGSGSGTDYTLTISSLKQEDFATYYCQQGYTLPWTFGQGTKLEIK please.
9.89

Give the reported pKd for this binder. HM297-E5 (antibody, human IgG1, V domains shown, also called humanized HM297, VH ver.E / VL ver.5) VH: QVQLVQSGPELVKPGASVKIPCKASGYTFTDYNVDWVRQSHGKSLEWIGDIDPNNGGTIYNQKFKDKATLTVDKSTRTAYMELRSLRSDDTAVYYCARWRGAMDYWGQGTLVTVSS VL: DIQMTQSPSSLSASVGDRVTITCRASQDIDNYLKWYQQKPDGTVKLLIYDTSRLHSGVPSRFSGSGSGTDYTLTISSLKQEDFATYYCQQGYTLPWTFGQGTKLEIK
7.30

Answer with reported pKd of HM297-H4 (antibody, human IgG1, V domains shown, also called humanized HM297, VH ver.H / VL ver.4) VH: QVQLVQSGPEVKKPGASVKIPCKASGYTFTDYNVDWVRQVPGQGLEWMGDIDPNNGGTIYNQKFKDRVTMTVDKSTRTAYMELRSLRSDDTAVYYCARWRGAMDYWGQGTLVTVSS VL: DIQMTQTTSSLSASVGDRVTITCRASQDIDNYLKWYQQKPDGTVKLLIYDTSRLHSGVPSRFSGSGSGTDYTLTISSLKQEDFATYYCQQGYTLPWTFGQGTKLEIK
9.66
